tested on: ragweed (common ragweed, Ambrosia elatior); test: Test A preemergence; assay type: in vivo; conditions: 500 g ai/ha, preemergence; 0 to 100 scale, 0 = no effect, 100 = complete control
Recorded Plant response rating, Ragweed, one value per entry.
// return a plain number; no unit text

{"columns": ["compound", "subject-of-test", "Plant response rating, Ragweed"],
 "data": [
  ["CN1CC(c2cccc(F)c2)C(C(=O)Nc2cccc(F)c2F)C1=O (stereo not shown)", "ragweed (common ragweed, Ambrosia elatior)", 70]
]}

Query: Give recorded Plant response rating, Ragweed with ragweed (common ragweed, Ambrosia elatior) for the following compound: Cc1cccc(C2CN(C)C(=O)C2C(=O)Nc2ccccc2S(C)(=O)=O)c1 (stereo not shown)
Reply: 40

Query: Find Plant response rating, Ragweed (ragweed (common ragweed, Ambrosia elatior)) for the entry CN1CC(c2cc(F)cc(F)c2)C(C(=O)Nc2cccc3c2CCCC3)C1=O (stereo not shown)
Reply: 0

Query: Quick check: Plant response rating, Ragweed on ragweed (common ragweed, Ambrosia elatior), item CN1CC(c2cccc(F)c2)C(C(=O)Nc2ccc(F)cc2F)C1=O (stereo not shown) ?
Reply: 50

Query: Provide value of Plant response rating, Ragweed for this record tested with ragweed (common ragweed, Ambrosia elatior): O=C1NCC(c2cccc(OC(F)(F)C(F)F)c2)C1C(=O)Nc1cccc(F)c1F (racemic)
Reply: 60

Query: Form entry - test system: ragweed (common ragweed, Ambrosia elatior); read-out: Plant response rating, Ragweed; compound: CN1CC(c2cccc(C(F)(F)F)c2)C(C(=O)Nc2ccccc2C(F)(F)F)C1=O (stereo not shown)
Reply: 60

Query: Hello, I am looking for reported Plant response rating, Ragweed with ragweed (common ragweed, Ambrosia elatior) for C=CCOc1cccc(C2CNC(=O)C2(CC=C)C(=O)Nc2cccc(F)c2F)c1 (stereo not shown) . Could you help?
Reply: 0

* * *

tested on: giant foxtail (Setaria faberii); assay: Test A postemergence; assay type: in vivo; details: Setaria faberi, post-emergence, 240 h, 125 g ai/ha, Postemergence, visual rating about 10 d after treatment; read-out: Foxtail, Giant plant response rating (0 to 100 scale)
From the text: […]
endpoint-label: pest or weed control at 125 g/ha (%)
Number in %, nothing else.

{"columns": ["molecule", "pest or weed control at 125 g/ha [%]"],
 "data": [
  ["O=C1NCC(c2ccccc2)C1C(=O)Nc1ccccc1Oc1ccccc1 (stereo not drawn)", 0],
  ["Cc1c(F)cccc1NC(=O)[C@H]1C(=O)N(C)C[C@@H]1c1ccc2c(c1)C(F)(F)C(F)(F)O2", 80],
  ["CN1C[C@H](c2ccc(C(F)F)cc2)[C@@H](C(=O)Nc2cccc(F)c2F)C1=O", 90]
]}

Query: Give its pest or weed control at 125 g/ha value. Item: COc1c([C@H]2CN(C)C(=O)[C@@H]2C(=O)Nc2ccccc2F)cccc1C(F)(F)F
Reply: 80

Query: Return reported pest or weed control at 125 g/ha; argument: COc1cc([C@H]2CN(C)C(=O)[C@@H]2C(=O)Nc2cccc(F)c2C)ccc1F
Reply: 80

Query: Entry CN1C[C@H](c2cccc(C#N)c2)[C@@H](C(=O)Nc2ccccc2F)C1=O : reported pest or weed control at 125 g/ha = ?
Reply: 70

Query: Which pest or weed control at 125 g/ha is reported for this molecule? C=CCOc1cccc(C2CN(C)C(=O)C2C(=O)Nc2ccccc2F)c1 (stereo not drawn)
Reply: 90

Query: pest or weed control at 125 g/ha lookup needed for Cc1nc([C@H]2CN(C)C(=O)[C@@H]2C(=O)Nc2cccc(F)c2F)cs1 , thanks.
Reply: 20

Query: Fill blank: measured pest or weed control at 125 g/ha of the molecule CN1C[C@H](c2cc(C(F)(F)F)cs2)[C@@H](C(=O)Nc2cccc(F)c2F)C1=O is ____.
Reply: 80

Query: Which pest or weed control at 125 g/ha is listed for O=C1NCC(c2ccccc2)C1C(=O)Nc1ccccc1 (stereo not drawn) ?
Reply: 0

Query: Consider the molecule CN1C[C@H](c2ccc(C(F)(F)F)nc2)[C@@H](C(=O)Nc2cccc(F)c2F)C1=O and give its measured pest or weed control at 125 g/ha.
Reply: 90

Query: Any idea what its pest or weed control at 125 g/ha is? The molecule is N#Cc1ccc(NC(=O)C2C(=O)NCC2c2ccccc2)cc1 (stereo not drawn)
Reply: 0

Query: Reported pest or weed control at 125 g/ha, molecule Cc1ccc([C@H]2CN(C)C(=O)[C@@H]2C(=O)Nc2cccc(F)n2)cc1 : ____
Reply: 90

Query: For CN1C[C@H](c2cccc(C#N)c2)[C@@H](C(=O)Nc2ccc(F)c(F)c2F)C1=O , what is its reported pest or weed control at 125 g/ha?
Reply: 80

Query: Can you look up the measured pest or weed control at 125 g/ha of O=C(Nc1cccc(F)c1F)[C@H]1C(=O)N(CC(F)F)C[C@@H]1c1cccc(C(F)(F)F)c1 for me?
Reply: 30

* * *

system: giant foxtail (Setaria faberii); assay: Test A postemergence; type: in vivo; details: Setaria faberi, post-emergence, 240 h, Postemergence, 31 g ai/ha; 0 is no effect, 100 is complete control; read-out: Foxtail, Giant plant response rating (0 to 100 scale)
Listed compounds paired with reported pest or weed control at 31 g/ha
Kindly answer with a numeric value in %, unit omitted.

Previously resolved entries follow.
{"columns": ["compound", "endpoint-label", "recorded-value"],
 "data": [
  ["O=C(Nc1cccc(F)c1F)[C@H]1C(=O)N(CC(F)F)C[C@@H]1c1cccc(C(F)(F)F)c1 [Compound 1296]", "pest or weed control at 31 g/ha", 0],
  ["CN1C[C@H](c2ccc(C(F)(F)F)cc2)[C@@H](C(=O)Nc2cccc(F)n2)C1=O [Compound 1400]", "pest or weed control at 31 g/ha", 70],
  ["CC(C)=Cc1cc([C@H]2CN(C)C(=O)[C@@H]2C(=O)Nc2cccc(F)c2F)ccc1C(F)(F)F [Compound 1337]", "pest or weed control at 31 g/ha", 20],
  ["CN1C[C@H](c2cccc(C(F)(F)F)c2)[C@@H](C(=O)Nc2ccccc2-n2cncn2)C1=O [Compound 1289]", "pest or weed control at 31 g/ha", 0],
  ["O=C1NC[C@H](c2csc3c2CCOC3)[C@H]1C(=O)Nc1cccc(F)c1F [Compound 1279]", "pest or weed control at 31 g/ha", 0]
]}

Query: Reported pest or weed control at 31 g/ha for giant foxtail (Setaria faberii), given Cc1c(F)cccc1NC(=O)[C@H]1C(=O)N(C)C[C@@H]1c1ccc2c(c1)C(F)(F)C(F)(F)O2 [Compound 1272] ?
Reply: 50

* * *

tested on: velvetleaf (Abutilon theophrasti); assay: Test G Post-Emergence Protocol; format: in vivo; conditions: Abutilon theophrasti, post-emergence, 312 h, 62.5 g ai/ha, evaluated after 13 days, 100=total damage to plant, 0=no damage to plant, read-out: Velvetleaf damage rating
Listed compounds paired with reported pest or weed control at 62.5 g/ha

Below: 3 compounds and their reported pest or weed control at 62.5 g/ha.
{"columns": ["compound", "pest or weed control at 62.5 g/ha"],
 "data": [
  ["Cc1nc(Cl)ccc1NC(=O)[C@H]1C(=O)N(C)C[C@@H]1c1ccc(C(F)(F)F)cc1 (racemic)", "0%"],
  ["CN1C[C@H](c2ccc(C(F)(F)F)cc2)[C@@H](C(=O)Nc2cnccc2[S+](C)[O-])C1=O (mixture of isomers)", "0%"],
  ["Cc1cc(C2CN(C)C(=O)C2C(=O)Nc2cccc(F)c2F)cc(C(F)(F)F)c1 (stereo not shown)", "10%"]
]}

Continue with the next compound.
Query: Which pest or weed control at 62.5 g/ha value is on record for CN1C[C@H](c2ccnc(C(C)(C)C)n2)[C@@H](C(=O)Nc2cccc(F)c2F)C1=O (racemic) ?
Reply: 0%

* * *

Below, each entry is listed alongside its reported pest or weed control at 62.5 g/ha.
test system: barnyardgrass (Echinochloa crus-galli); assay: Test G Post-Emergence Protocol; type: in vivo; conditions: Echinochloa crus-galli, post-emergence, 312 h, 62.5 g ai/ha, evaluated after 13 days, read-out: Barnyardgrass damage rating (100=total damage to plant; 0=no damage to plant)
Give just the number in %; leave the unit off.

{"columns": ["compound", "display-unit", "pest or weed control at 62.5 g/ha"],
 "data": [
  ["CN1C[C@@H](c2ccc(C(F)(F)F)cc2)[C@H](C(=O)Nc2cnccc2Cl)C1=O (racemic)", "%", 0],
  ["CN1C[C@@H](c2ccc(C(F)(F)F)cc2)[C@H](C(=O)Nc2ccc(F)c(Cl)c2F)C1=O (racemic)", "%", 70]
]}

Query: Tell me the measured pest or weed control at 62.5 g/ha of COc1cc(NC(=O)[C@@H]2C(=O)N(C)C[C@H]2c2ccc(C(F)(F)F)cc2)ccn1 (racemic) , please.
Reply: 0

Query: Look up pest or weed control at 62.5 g/ha: CN1C[C@@H](c2ccc(C(F)(F)F)cc2)[C@H](C(=O)Nc2cc(C(F)(F)F)nn2C)C1=O (racemic)
Reply: 0

Query: Consider the compound CN1C[C@H](c2ccc3occc3c2)[C@@H](C(=O)Nc2cccc(F)c2F)C1=O (racemic) and give its measured pest or weed control at 62.5 g/ha.
Reply: 60

Query: Field request: pest or weed control at 62.5 g/ha | item: Cc1cnc(NC(=O)[C@@H]2C(=O)N(C)C[C@H]2c2ccc(C(F)(F)F)cc2)s1 (racemic)
Reply: 0

Query: Given CN1C[C@H](c2cccc(C(C)(C)C#N)c2)[C@@H](C(=O)Nc2ccccc2F)C1=O (racemic) , state its recorded pest or weed control at 62.5 g/ha.
Reply: 40

Data credit: patent US12077503B2
